B1: LOC100129726 (parent)
chain: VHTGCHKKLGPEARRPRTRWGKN

- Variants of: B1
- TEST DESCRIPTION: protein stability index of a GFP-peptide fusion (GPS, HEK-293T) (PSI 1-6); higher = more stable;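 further: lentivirally expressed fusions sorted by FACS into six bins by GFP to DsRed ratio, PSI derived from sequencing read proportions per bin multiplied by bin number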
- PROTOCOL CONDITIONS: c terminus: native
MEASURED PARAMETER: protein stability index
The answer should be written as a number, with no unit following it.

IN: Query (variant): VHTGCHKKLGPEARRPRFRWGKN [T18F] ; field requested: protein stability index
OUT: 2.03

IN: Query (variant): VHTGCHKKLGPEARRPITRWGKN [R17I] ; field requested: protein stability index
OUT: 1.98

IN: Query (variant): VHTGCHKKLGPEARRPRTRHGKN [W20H] ; field requested: protein stability index
OUT: 2.02
